Source: ChEMBL document CHEMBL3593210

Biological target: Glutamate NMDA receptor (Rattus norvegicus) (UniProt P35439+Q00959+Q00960+Q00961+Q62645+Q8VHN2+Q9R1M7)
Experiment: Ratio of IC50 for displacement of [3H]-MK-801 from rat cortical membranes NMDA receptor in presence of 30 uM spermine to IC50 for displacement of [3H]-MK-801 from rat cortical membranes NMDA receptor in absence of 30 spermine
ENDPOINT: Ratio IC50
Lab note: record just the number, no unit beside it.

Solved entries:
1. CC(C)/N=C(/N)c1ccc(N2CCN(c3ccc(/C(N)=N\C(C)C)cc3)CC2)cc1	32.9
2. N=C(N)c1ccc(NC(=O)c2ccc(C(=O)Nc3ccc(C(=N)N)cc3)cc2)cc1	0.96
3. N=C(N)c1ccc(NC(=O)CCCCCCC(=O)Nc2ccc(C(=N)N)cc2)cc1	7.25
4. N=C(N)c1ccc(OCc2ccccc2COc2ccc(C(=N)N)cc2)cc1	4
5. c1cc(N2CCN(c3ccc(C4=NCCN4)cc3)CC2)ccc1C1=NCCN1	15.1

Inquiry: Returns the measured Ratio IC50 for the input compound. Input: `Cc1ccc(S(=O)(=O)N(CCOc2ccc(C(=N)N)cc2)CCOc2ccc(C(=N)N)cc2)cc1`
Reply text: 6.28

Inquiry: Would you mind telling me what Ratio IC50 value was observed for `NCCCCCCCCCCCCN` ?
Reply text: 32.9

Inquiry: Form field: reported Ratio IC50 of `N=C(N)c1ccc(COc2ccccc2OCc2ccc(C(=N)N)cc2)cc1`
Reply text: 10.1

Inquiry: Looking for the measured Ratio IC50 of `N=C(N)c1ccc(NC(=O)c2ccc(C(=O)Nc3ccc(C(=N)N)cc3)o2)cc1` , can you help?
Reply text: 1.01

Inquiry: Requested read-out: Ratio IC50. Entry: `CC(C)NC(=N)c1ccc(NC(=O)c2ccc(C(=O)Nc3ccc(C(=N)NC(C)C)cc3)o2)cc1`
Reply text: 16.9

* * *

Target: Glutamate NMDA receptor
Assay: Displacement of [3H]-MK-801 from rat cortical membranes NMDA receptor by beta counting analysis in presence of 30 uM spermine
Catalogue of IC50 readings, one per entry.
Provide the reading as a plain figure in µM.

1) CCCCNC(=N)c1ccc(N2CCCN(c3ccc(C(=N)NCCCC)cc3)CC2)cc1	103
2) N=C(N)c1ccc(COc2ccccc2OCc2ccc(C(=N)N)cc2)cc1	18.4
3) N=C(N)c1ccc(C(=O)NCCCCCCNC(=O)c2ccc(C(=N)N)cc2)cc1	1210

Inquiry: Look at this compound and give its reported IC50. `N=C(N)c1ccc(C(=O)Nc2cccc(NC(=O)c3ccc(C(=N)N)cc3)n2)cc1`
Reply text: 233

Inquiry: Record request: IC50 value, item N=C(N)c1ccc(OC(=O)c2ccc(C(=O)Oc3ccc(C(=N)N)cc3)cc2)cc1 [BIS(4-CARBAMIMIDOYLPHENYL)TEREPHTHALATE]
Reply text: 46.6

Inquiry: Requested field: IC50. Item: `N=C(N)c1ccc(-c2ccc(-c3ccc(C(=N)N)cc3)o2)cc1`
Reply text: 7.48

Inquiry: # lookup: IC50 of `c1cc(N2CCN(c3ccc(C4=NCCCN4)cc3)CC2)ccc1C1=NCCCN1`
Reply text: 264

Inquiry: So what's the measured IC50 for this one? `N=C(N)c1ccc(NCCNc2ccc(C(=N)N)cc2)cc1`
Reply text: 50.7

* * *

Molecular target: Glutamate NMDA receptor
Assay: Displacement of [3H]-MK-801 from rat cortical membranes NMDA receptor by beta counting analysis in presence of 30 uM spermine
ENDPOINT: IC50 (µM)
Report the value in µM with no unit label.

The examples below pair each entry with its known result.
1) N=C(N)c1ccc(-c2ccc(-c3ccc(C(=N)N)cc3)c(F)c2)cc1	34.2
2) N=C(NCCCO)c1ccc(N2CCCN(c3ccc(/C(N)=N/CCCO)cc3)CC2)cc1	427

Inquiry: Param item = `N=C(N)c1ccc(NC(=O)CCCCC(=O)Nc2ccc(C(=N)N)cc2)cc1` ; retrieve measured IC50.
Reply text: 437

Inquiry: Please report the recorded IC50 for `N=C(N)c1ccc(-c2ccc(-c3ccc(C(=N)N)cc3)s2)cc1` .
Reply text: 17.7

* * *

Biological target: Glutamate NMDA receptor
Test: Displacement of [3H]-MK-801 from rat cortical membranes NMDA receptor by beta counting analysis in presence of 30 uM spermine
Below, each entry is listed with its recorded log10 of IC50.
Hey, these are logged values: log10 of IC50, µM being the unit before logging.

Example molecules with recorded log10 of IC50:
1) C/N=C(\N)c1ccc(-c2ccc(-c3ccc(/C(N)=N/C)cc3)o2)cc1	1.38
2) N=C(N)c1ccc(NCCCCNc2ccc(C(=N)N)cc2)cc1	1.93
3) CC(C)/N=C(/N)c1ccc(N2CCN(c3ccc(/C(N)=N\C(C)C)cc3)CC2)cc1	2.74
4) CC(C)/N=C(\N)c1ccc(N2CCCN(c3ccc(/C(N)=N/C(C)C)cc3)CC2)cc1	2.59
5) CCN(CCNc1ccc(C(=N)N)cc1)c1ccc(C(=N)N)cc1	1.68

From here, focus on the item given below.
Inquiry: Tell me the measured log10 of IC50 of `N=C(NC1CCCC1)c1ccc(N2CCN(c3ccc(C(=N)NC4CCCC4)cc3)CC2)cc1` , please.
Reply text: 2.20

* * *

Each entry below carries its reported pIC50.
Biological target: Glutamate NMDA receptor
Experiment: Displacement of [3H]-MK-801 from rat cortical membranes NMDA receptor by beta counting analysis in absence of spermine
Please note pIC50 is a logarithmic value: minus log10 of concentration in mol/L. Answer with that number alone.

1. N=C(N)c1ccc(-c2ccc(-c3ccc(C(=N)N)cc3)s2)cc1	5.18
2. N=C(NC1CC1)c1ccc(N2CCN(c3ccc(C(=N)NC4CC4)cc3)CC2)cc1	4.71

Inquiry: Item under review: `N=C(N)c1ccc(NC(=O)c2cccc(C(=O)Nc3ccc(C(=N)N)cc3)c2)cc1` . Reported pIC50?
Reply text: 4.37

Inquiry: Given `N=C(N)c1ccc(NC(=O)CCCCCCCC(=O)Nc2ccc(C(=N)N)cc2)cc1` , state its recorded pIC50.
Reply text: 4.58

* * *

Molecular target: Glutamate NMDA receptor
Test: Displacement of [3H]-MK-801 from rat cortical membranes NMDA receptor by beta counting analysis in absence of spermine
// returns not satisfied unless IC50 is strictly below 5 µM, in which case satisfied

Some solved cases for reference:
1. N=C(N)c1ccc(NC(=O)c2cccc(C(=O)Nc3ccc(C(=N)N)cc3)n2)cc1	not satisfied
2. N=C(NCCCO)c1ccc(N2CCCN(c3ccc(/C(N)=N/CCCO)cc3)CC2)cc1	not satisfied
3. N=C(N)c1ccc(NCCCCCCCCNc2ccc(C(=N)N)cc2)cc1	not satisfied
4. N=C(N)c1ccc(OCc2ccc(COc3ccc(C(=N)N)cc3)cc2)cc1	not satisfied
5. N=C(NC1CC1)c1ccc(N2CCCN(c3ccc(C(=N)NC4CC4)cc3)CC2)cc1	not satisfied

Inquiry: Field: below-cutoff. Rule: recorded IC50 strictly less than 5 µM. Subject: `CC(C)/N=C(/N)c1ccc(N2CCN(c3ccc(/C(N)=N\C(C)C)cc3)CC2)cc1`
Reply text: not satisfied

Inquiry: Take the compound `Cc1ccc(S(=O)(=O)N(CCOc2ccc(C(=N)N)cc2)CCOc2ccc(C(=N)N)cc2)cc1` and say whether its IC50 is less than 5 µM.
Reply text: satisfied

Inquiry: Bench note: check whether `N=C(N)c1ccc(OCc2cccc(COc3ccc(C(=N)N)cc3)c2)cc1` shows IC50 below 5 µM
Reply text: satisfied

Inquiry: Decide: IC50 of `NCCCCCCCCc1ccc(CCCCN)s1` strictly below 5 µM?
Reply text: satisfied

Inquiry: In plain terms, does `CCN(CCNc1ccc(C(=N)N)cc1)c1ccc(C(=N)N)cc1` come in under 5 µM for IC50?
Reply text: satisfied

* * *

Examples of compounds with documented pIC50 follow.
Biological target: Glutamate NMDA receptor
Assay: Displacement of [3H]-MK-801 from rat cortical membranes NMDA receptor by beta counting analysis in presence of 30 uM spermine
pIC50 is defined as minus the log10 of a concentration measured in mol/L.

1) CC(C)NC(=N)c1ccc(NC(=O)c2ccc(C(=O)Nc3ccc(C(=N)NC(C)C)cc3)o2)cc1	3.76

Inquiry: Kindly state the measured pIC50 obtained for `N=C(NC1CC1)c1ccc(N2CCN(c3ccc(C(=N)NC4CC4)cc3)CC2)cc1` with Glutamate NMDA receptor.
Reply text: 3.33

* * *

Target: Glutamate NMDA receptor
Assay: Displacement of [3H]-MK-801 from rat cortical membranes NMDA receptor by beta counting analysis in presence of 30 uM spermine
ENDPOINT: IC50 (µM)
Value expressed in µM; do not type the unit.

Please review the entries below; each comes with its answer.
1. c1cc(N2CCCN(c3ccc(C4=NCCCN4)cc3)CC2)ccc1C1=NCCCN1	143
2. N=C(N)c1ccc(NC(=O)CCCCCCCC(=O)Nc2ccc(C(=N)N)cc2)cc1	111
3. CC/N=C(\N)c1ccc(-c2ccc(-c3ccc(/C(N)=N/CC)cc3)o2)cc1	30.7

Pending compound:
Inquiry: Fill in the blank: the reported IC50 of `c1cc(N2CCCN(c3ccc(C4=NCCN4)cc3)CC2)ccc1C1=NCCN1` is ____.
Reply text: 92.2
